Assay: logp: n-octanol/water partition coefficient by reversed phase HPLC
Type: physicochemical
Details: h2o/ch3cn, A isomer (possible geometric isomer), read-out: logp (logarithm to base ten of the n-octanol/water partition coefficient)
# chromatographic logP values compiled below

molecule	chromatographic logP
CC1CC(C)(C)OC2(CCC(c3ccc(C4COC(c5c(F)cccc5F)=N4)cc3)CC2)O1 (stereo not shown) [Example 26]	5.12
Fc1cccc(F)c1C1=NC(c2ccc(C3CCC4(CC3)OCC(COc3ccc(Cl)cc3)O4)cc2)CO1 (stereo not shown) [Example 46]	5.1
CCCCCCCCCC1COC2(CCC(c3ccc(C4COC(c5c(F)cccc5F)=N4)cc3)CC2)O1 (stereo not shown) [Example 17]	7.12
CC(C)(C)C1COC2(CCC(c3ccc(C4COC(c5c(F)cccc5F)=N4)cc3)CC2)O1 (stereo not shown) [Example 15]	5.41
CCCCOCC1COC2(CCC(c3ccc(C4COC(c5c(F)cccc5F)=N4)cc3)CC2)O1 (stereo not shown) [Example 51]	4.97
Fc1cccc(F)c1C1=NC(c2ccc(C3CCC4(CC3)OCC(c3ccc(Br)cc3)O4)cc2)CO1 (stereo not shown) [Example 39]	5.36
CCCCOC1(OCCCC)CCC(c2ccc(C3COC(c4c(F)cccc4F)=N3)cc2)CC1 (stereo not shown) [Example 19]	6.77
CC=CC1OC2(CCC(c3ccc(C4COC(c5c(F)cccc5F)=N4)cc3)CC2)OC1C=CC (stereo not shown) [Example 53]	5.23
Fc1cccc(F)c1C1=NC(c2ccc(C3CCC4(CC3)OCC(c3ccccc3)O4)cc2)CO1 (stereo not shown) [Example 58]	4.78
Fc1cccc(F)c1C1=NC(c2ccc(C3CCC4(CC3)OCC(Br)(c3ccc(Cl)cc3)O4)cc2)CO1 (stereo not shown) [Example 45]	5.96
